Measurement record for M-phase inducer phosphatase 2 (Mus musculus, UniProt P30306); quantity recorded: IC50.

- CC(C)=CCCC(C)CCOC(=O)c1c(O)oc(CO)c1O (stereo not drawn): > 125 µM
- O=C(OC1CCCCC1)c1c(O)oc(CO)c1O: > 125 µM

// query What value of measured IC50 is listed for O=C(OCc1ccccc1)c1c(O)oc(CO)c1O ?
// result > 125 µM
